System: HEp2 or BSC1 cells
Assay: Toxicity to cells in the TCID50 screen (mock control)
Type: cell-based
Conditions: cellular RSV TCID50 assay tables
Procedure: This method provides a rapid approach to initially screen compounds and was developed as an increased number of compounds were synthesised. […] Virus was then added over 5 different half log dilutions starting at a multiplicity of infection of 0.02 plus mock control. Three dilutions of compound plus a DMSO control were screened per plate. […] Identical plate repeats for each compound dilution were fixed in subsequent days as indicated.
readout.name: Toxicity

- sample.smiles: "COc1ccc(NC(=O)Nc2ccccc2C)cc1OC"
  readout.name: "Toxicity"
  endpoint.result: "Low"
- sample.smiles: "Cc1ccccc1NC(=O)Nc1cccc(C#N)c1"
  readout.name: "Toxicity"
  endpoint.result: "low"
- sample.smiles: "Cc1ccccc1NC(=O)Nc1cccnc1"
  readout.name: "Toxicity"
  endpoint.result: "low"

====

Tested on: HEp2 or BSC1 cells
Assay: Toxicity to cells in the TCID50 screen (mock control)
Format: cell-based
Details: cellular RSV TCID50 assay tables
readout.name: Toxicity

Use these answered entries as a reference point.
- compound: "Cc1ccccc1NC(=O)Nc1cccc(Br)c1"
  Toxicity: "toxic at 100 μM"
- compound: "Cc1ccccc1NC(=O)Nc1ccccn1"
  Toxicity: "low"
- compound: "CCCCCCCCNC(=S)Nc1ccccc1C"
  Toxicity: "low"
- compound: "CC1CCCCC1NC(=O)Nc1cccc(C#N)c1 (centres unmarked)"
  Toxicity: "low"
- compound: "N#Cc1cccc(NC(=O)Nc2ncccn2)c1"
  Toxicity: "toxic at 100 μM"

Response field Toxicity (HEp2 or BSC1 cells) for item Cc1ccccc1NC(=O)Nc1cccc(C(F)(F)F)c1 : Low

====

System: hRSV (strain A2)
Assay: Plaque inhibition assay, hRSV
Type: cell-based, human respiratory syncytial virus
Details: human respiratory syncytial virus, HEp-2, 120 h; hRSV, HEp2 cells, Day 5; read-out: IC50 (plaque number vs DMSO control)
readout.name: pIC50
// field semantics: pIC50 = negative decimal log of concentration (mol/L)

Looking up CSc1cccc(NC(=O)Nc2ccccc2C)c1 , I found its pIC50 recorded as 5.39

Note to self: pIC50 recorded for CSc1ccc(NC(=O)NCCCOCCOCCOCCCNC(=O)Nc2ccc(SC)cc2)cc1 was 4.76

The reported value for Cc1ccccc1NC(=O)Nc1ccc(C#N)cc1 in terms of pIC50 is 5.00

====

System: PVM (strain 15)
Test: Plaque inhibition assay, PVM
Assay type: cell-based, pneumonia virus of mice
Conditions: murine pneumonia virus, HEp-2, 144 h; PVM, HEp2 cells, day 6
readout.name: pIC50
# pIC50 = -log10(concentration in molar units)

Entry CSc1cccc(NC(=O)Nc2ccccc2C)c1 , pIC50 reported as 4.00

====

Assay: Solubility in cell medium
Format: physicochemical
Settings: cell medium, aqueous buffer, kinetic from dmso stock; read-out: Upper limit of soluble concentration
readout.name: solubility

Just so you know, measured solubility for Cc1ccccc1NC(=O)Nc1cccc([N+](=O)[O-])c1 came out at 5 to 10 µM

====

System: hRSV (strain A2)
Test: Plaque inhibition assay, hRSV
Assay type: cell-based, human respiratory syncytial virus
Conditions: human respiratory syncytial virus, HEp-2, 168 h; hRSV, HEp2 cells, Day 7; read-out: IC50 (plaque number vs DMSO control)
readout.name: pIC50
Note on pIC50: it is the negative log10 of concentration, concentration in mol/L.

Entry CSc1cccc(NC(=O)Nc2ccccc2C)c1 [Compound 4] — recorded pIC50 = 4.82

====

Experiment: Solubility in cell medium
Type: physicochemical
Settings: solution of ligand in DMSO (20 mM) diluted in cell media to 100 μM; scale from 'very poor' (almost insoluble) to 'very good' (freely soluble over extended periods at 4° C.)
readout.name: Solubility in cell medium

- sample.smiles: "Cc1ccccc1NC(=S)NCCN(C)C"
  readout.name: "Solubility in cell medium"
  endpoint.result: "good"
- sample.smiles: "COc1cccc(NC(=O)Nc2cccc(NC(=O)Nc3cccc(OC)c3)c2)c1"
  readout.name: "Solubility in cell medium"
  endpoint.result: "poor"
- sample.smiles: "Cc1ccccc1NC(=O)N1CCOCC1"
  readout.name: "Solubility in cell medium"
  endpoint.result: "good"
- sample.smiles: "CSc1ccc(NC(=O)Nc2ccccc2C)cc1"
  readout.name: "Solubility in cell medium"
  endpoint.result: "good"

====

System: HEp2 or BSC1 cells
Experiment: Toxicity to cells in the TCID50 screen (mock control)
Type: cell-based
Conditions: cellular RSV TCID50 assay tables
readout.name: Toxicity

Some compounds with known Toxicity results, for comparison:
- compound: "CSc1cccc(NC(=O)Nc2cccc(NC(=O)Nc3cccc(SC)c3)c2)c1"
  target.entity: "HEp2 or BSC1 cells"
  Toxicity: "toxic at 100 μM"
- compound: "CC1CCCCC1NC(=O)Nc1cccc([N+](=O)[O-])c1 (stereo not drawn)"
  target.entity: "HEp2 or BSC1 cells"
  Toxicity: "toxic at 100 μM"
- compound: "CCCCCCCCNC(=O)Nc1ccc(C#N)cc1"
  target.entity: "HEp2 or BSC1 cells"
  Toxicity: "low"
- compound: "Cc1ccccc1NC(=O)Nc1ccc(Br)cc1"
  target.entity: "HEp2 or BSC1 cells"
  Toxicity: "Low"
- compound: "CSc1ccc(NC(=O)Nc2ccccc2C)cc1"
  target.entity: "HEp2 or BSC1 cells"
  Toxicity: "low"
- compound: "Cc1ccccc1NC(=O)NCCN(C)C"
  target.entity: "HEp2 or BSC1 cells"
  Toxicity: "low"
- compound: "N#Cc1cccc(NC(=O)Nc2cccnc2)c1"
  target.entity: "HEp2 or BSC1 cells"
  Toxicity: "low"
- compound: "CCCCCCCCNC(=O)Nc1ccccc1C"
  target.entity: "HEp2 or BSC1 cells"
  Toxicity: "low"
- compound: "Cc1ccccc1NC(=O)N1CCOCC1"
  target.entity: "HEp2 or BSC1 cells"
  Toxicity: "low"
- compound: "Cc1ccccc1NC(=O)Nc1ccc(I)cc1"
  target.entity: "HEp2 or BSC1 cells"
  Toxicity: "Low"

For record Cc1ccccc1NC(=S)NCCN(C)C the listed Toxicity is low

Record COc1cccc(NC(=O)Nc2ccccc2C)c1 , field Toxicity: toxic at 100 μM

====

Assay: Solubility in cell medium
Assay type: physicochemical
Conditions: solution of ligand in DMSO (20 mM) diluted in cell media to 100 μM; scale from 'very poor' (almost insoluble) to 'very good' (freely soluble over extended periods at 4° C.)
readout.name: Solubility in cell medium

In the examples that follow, each entry is paired with its recorded Solubility in cell medium.
- compound: "CCCCCCCCNC(=O)Nc1ccccc1C"
  Solubility in cell medium: "moderate"
- compound: "Cc1ccccc1NC(=O)NCCCOCCOCCOCCCNC(=O)Nc1ccccc1C"
  Solubility in cell medium: "good"
- compound: "N#Cc1ccc(NC(=O)Nc2ccccn2)cc1"
  Solubility in cell medium: "moderate"
- compound: "Cc1ccccc1NC(=O)Nc1cccc(C(F)(F)F)c1"
  Solubility in cell medium: "Good"
- compound: "Cc1ccccc1NC(=O)Nc1cccnc1"
  Solubility in cell medium: "moderate"
- compound: "COc1cccc(NC(=O)Nc2ccccc2C)c1"
  Solubility in cell medium: "good"

The compound identified as CSc1cccc(NC(=O)Nc2ccccc2C)c1 registered its Solubility in cell medium at good

# Solubility in cell medium (compound: Cc1ccccc1NC(=O)Nc1cccc(Br)c1 ) is moderate

====

Tested on: hRSV (strain A2)
Assay: Plaque inhibition assay, hRSV
Format: cell-based, human respiratory syncytial virus
Details: human respiratory syncytial virus, HEp-2, 144 h; hRSV, HEp2 cells, Day 6; read-out: IC50 (plaque number vs DMSO control)
readout.name: IC50 (µM)
Enter your answer as a number in µM; do not include the unit.

Reported IC50 for CSc1cccc(NC(=O)Nc2ccccc2C)c1 [Compound 4] was 8.5

====

Test: Solubility in cell medium
Format: physicochemical
Settings: solution of ligand in DMSO (20 mM) diluted in cell media to 100 μM; scale from 'very poor' (almost insoluble) to 'very good' (freely soluble over extended periods at 4° C.)
readout.name: Solubility in cell medium

See these solved cases before continuing.
- compound: "Cc1ccccc1NC(=O)Nc1cccc([N+](=O)[O-])c1"
  Solubility in cell medium: "poor"
- compound: "Cc1ccccc1NC(=O)Nc1ccc(C#N)cc1"
  Solubility in cell medium: "good"
- compound: "Cc1ccccc1NC(=O)Nc1cccc([S+](C)[O-])c1 (centres unmarked)"
  Solubility in cell medium: "good"
- compound: "CSc1cccc(NC(=O)Nc2cccc(NC(=O)Nc3cccc(SC)c3)c2)c1"
  Solubility in cell medium: "poor"
- compound: "COc1ccc(NC(=O)Nc2ccccc2C)cc1"
  Solubility in cell medium: "good"
- compound: "CC1CCCCC1NC(=O)Nc1ccc(C#N)cc1 (centres unmarked)"
  Solubility in cell medium: "moderate"
- compound: "COc1ccc(NC(=O)Nc2ccccc2C)cc1OC"
  Solubility in cell medium: "Good"
- compound: "Cc1ccccc1NC(=O)Nc1ccc(I)cc1"
  Solubility in cell medium: "Moderate at 100 μM"

Query CSc1ccc(NC(=O)NCCCOCCOCCOCCCNC(=O)Nc2ccc(SC)cc2)cc1 yields Solubility in cell medium of good

Entry N#Cc1cccc(NC(=O)Nc2ccccn2)c1 — recorded Solubility in cell medium = moderate
